All values here come from the supplement of paper PMC7877785.

# ASSAY COMMENT: self-splicing fitness, log relative to wild type (ln ratio); higher = more splicing; Tetrahymena group I intron in knt gene, E. coli kanamycin selection, DiMSum; sequences stand for … in CUCUCU…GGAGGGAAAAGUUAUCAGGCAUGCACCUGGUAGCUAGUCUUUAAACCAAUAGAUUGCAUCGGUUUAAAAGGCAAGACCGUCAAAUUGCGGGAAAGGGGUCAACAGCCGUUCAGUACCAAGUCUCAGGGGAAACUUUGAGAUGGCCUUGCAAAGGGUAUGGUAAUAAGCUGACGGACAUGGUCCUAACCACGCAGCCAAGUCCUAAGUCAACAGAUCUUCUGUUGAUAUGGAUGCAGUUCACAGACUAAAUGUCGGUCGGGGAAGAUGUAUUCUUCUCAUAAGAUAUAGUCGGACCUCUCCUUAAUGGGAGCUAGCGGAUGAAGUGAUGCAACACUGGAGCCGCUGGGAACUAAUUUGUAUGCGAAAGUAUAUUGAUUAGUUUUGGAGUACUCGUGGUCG;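 further: selection with 25 µg/mL kanamycin versus none on LB agar overnight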
# EXPERIMENTAL CONTEXT: 37 °C
Label scheme for self-splicing fitness (ln): lower than -1 is F, -1 and above is T.

Worked set:
BIOSEQUENCE | ASSIGNED CATEGORY
GAAGAGCAAUAUUACGCUAA | F
ACUCAGCAAUAUUACGAUCG | T

Q) Reported self-splicing fitness (ln) reaches at least -1 for AGCGAGCAAUAUUACGCCCU ?
A) T

Q) Given the entry GAGGAGCAAUAUUACGCGAA , answer whether its self-splicing fitness (ln) meets or surpasses -1.
A) F

Q) For this sequence, is measured self-splicing fitness (ln) -1 or higher? UAGCAGCAAUAUUACGACCA
A) T

Q) Kindly determine if self-splicing fitness (ln) recorded for GAACAGCAAUAUUACGCGCA is above or exactly -1.
A) T

Q) In plain terms: is recorded self-splicing fitness (ln) at least -1 for GCUGAGCAAUAUUACGACGC ?
A) F

Q) Does self-splicing fitness (ln) meet or surpass -1 for AGUUAGCAAUAUUACGAGAU ?
A) F

###

# ASSAY COMMENT: self-splicing fitness, log relative to wild type (ln ratio); higher = more splicing; Tetrahymena group I intron in knt gene, E. coli kanamycin selection, DiMSum; sequences stand for … in CUCUCU…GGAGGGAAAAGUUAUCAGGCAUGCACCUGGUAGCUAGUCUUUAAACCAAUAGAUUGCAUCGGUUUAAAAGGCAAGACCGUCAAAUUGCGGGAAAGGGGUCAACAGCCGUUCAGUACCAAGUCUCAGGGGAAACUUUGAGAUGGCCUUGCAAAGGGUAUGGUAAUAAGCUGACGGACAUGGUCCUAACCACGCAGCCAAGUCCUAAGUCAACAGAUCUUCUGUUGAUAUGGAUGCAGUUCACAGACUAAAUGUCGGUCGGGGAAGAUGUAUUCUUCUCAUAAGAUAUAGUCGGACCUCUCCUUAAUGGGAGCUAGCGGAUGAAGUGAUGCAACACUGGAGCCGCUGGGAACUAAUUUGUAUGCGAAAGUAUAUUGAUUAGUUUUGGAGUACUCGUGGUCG
# EXPERIMENTAL CONTEXT: 37 °C
MEASUREMENT KIND: self-splicing fitness (ln)
Answer using only a numeral; do not append any unit.

Q) Quick one: self-splicing fitness (ln) of AUGUAGCAAUAUUACGCCUC ?
A) -1.61

Q) Returns the measured self-splicing fitness (ln) for the input sequence. Input: UCACAGCAAUAUUACGCCUU
A) -2.71

Q) What measured self-splicing fitness (ln) goes with CAAGAGCAAUAUUACGUAGA ?
A) -2.76

Q) Item under review: CCGUAGCAAUAUUACGGCAC . Reported self-splicing fitness (ln)?
A) -2.14

Q) Look at this sequence and give its reported self-splicing fitness (ln). AAUAAGCAAUAUUACGCUUU
A) -3.26

Q) I'd like to know its self-splicing fitness (ln). The sequence in question is GCCUAGCAAUAUUACGAUGA
A) -1.4

Q) Fill blank: measured self-splicing fitness (ln) of the sequence CGCUAGCAAUAUUACGGAUU is ____.
A) -1.52

Q) Dear colleague, I am looking for the recorded self-splicing fitness (ln) of the following sequence: UGGAAGCAAUAUUACGAGAU
A) -2.47

Q) Can you share its self-splicing fitness (ln)? I mean this sequence: AGACAGCAAUAUUACGCACA
A) -0.0964

Q) Fill in: self-splicing fitness (ln) of GAGAAGCAAUAUUACGCACA is ___
A) 0.27

Q) Request the reported self-splicing fitness (ln) associated with GCGUAGCAAUAUUACGUAGG
A) -2.02

Q) May I ask what self-splicing fitness (ln) has been recorded for UUCAAGCAAUAUUACGGGUG ?
A) -0.593

Q) Form field: reported self-splicing fitness (ln) of UGAUAGCAAUAUUACGAGUU
A) -2.73

Q) May I ask what self-splicing fitness (ln) has been recorded for UUGCAGCAAUAUUACGGAAG ?
A) -0.414

Q) Param item = CAAUAGCAAUAUUACGAAGA ; retrieve measured self-splicing fitness (ln).
A) -1.31

Q) // query self-splicing fitness (ln) value for entry CCUUAGCAAUAUUACGCGCG
A) -3.39

Q) Name the recorded self-splicing fitness (ln) for CAUGAGCAAUAUUACGCAAG .
A) -1.69
